The reported measurements were obtained from the supplement of paper PMC9170038.

- System: MS2 coat protein
- ASSAY_REMARKS: apparent KD of MS2 coat protein; designed switch direction (-1 OFF switch, 1 ON switch): -1; higher = weaker reporter binding
- CONDITIONS_USED: input ligand: none

| SEQUENCE_CHAIN | apparent KD of MS2 coat protein, µM |
| --- | --- |
| ACAAGCUUUUAGAUUUUCAACAUGAGGAUCACCCAUGUUCGUCUUAUGCUAGUGCUAGUGCGGUGUACUGGUAUUGG [JL TOV1 3.79 sellena mod] (Eterna round: R97, puzzle: Sensor, turn-off variant 1) | 0.0195 |
| AACCUGAGGCAAAGCUUUAGGUGUACAUGAGGAUCACCCAUGUAGGAUAUGGUAAGCAAAGCUUACCAGAAGGACAUAAUGAUG [Mat - Exclusion NG 3 - Mod of JL - D48] (Eterna round: R96, puzzle: Exclusion NG 3) | 0.0902 |

----------
- System: K4 kissing-loop RNA reporter
- ASSAY_REMARKS: apparent KD of K4 kissing-loop reporter; higher = weaker reporter binding
- CONDITIONS_USED: Eterna round: R107; input ligand: theophylline 20 uM
apparent KD of K4 kissing-loop reporter for assorted sequences
READOUT_NAME: apparent KD of K4 kissing-loop reporter (nM)

| SEQUENCE_CHAIN | UNITS_LABEL | EXPERIMENTAL_RESULT |
| --- | --- | --- |
| CGAUGGAUGGCAGGAUAUAGACAUUGAGUGAUGUUCGAUGAUUAUCCAUAUUCCCGUCACCUAAGACUAGAAGGGCCAUCCAUCG | nM | 191 |
| UGUGAGCUGUCGACAAAAGUCGACUAAAAUGAGGAUAUGACGAAAGUCAGAAGGCAUCAAUAAUGGAGUGAUGUUCCUGCUCACU [FmnA 9 U30+A56] | nM | 790 |
| AGAAUAAUAAAUUUGGAGUGAUGUUCCGGACGAGGACCGGUACGGCCGCCACUCGAAAGCAGUCUGCGAAAGCAGACUGCAAGGA [Tesla SS Tryp A 1] | nM | 349 |
| ACGUCAUAUGUAAUGGUGGUUUCGAUCGAUACCAGUAGCGAGAGUUACCCUUGGCAGCGACAUGAGUGAUGUUCAUGUAUGAAGA [KL-XTheo-A2 #analogue] | nM | 120 |
| GAGAGCCCUGGAGGAUAUGAGUCUAGUGAUGUUAGGCGGUCCAUGCGCGUGGCGCGUUAUGCCCUUUUAGAAGGCCAGGGCUCUC [#2 Exclusion - FMN B Attempt #18 (HarryS)] | nM | 85.2 |
| CUUGAUGUGUCGGCCGCCACUGGUAUAGGCGGACUAUAACGACAUGAGUGAUGUUCAUGUUCGUCUAGGACCGGGACACAUUGUA [Tryp B SS t4] | nM | 100 |
| CCUAUCUCAUACGAUACCAGUCAAUGAUCUUUGAUCAAUGCCAUCACCGAGUGAUGUUCGGACCCUUGGCAGCGUAUGAGAUGGG [whbob_Ex_Theo_B_sa104] | nM | 376 |
| CCCGCGUCGUUAGUGAUGUUGACUUCUGAUACCAGUCGCAGGUAGGACCCUUGGCAGCAGCAGUUUUGUUAUAUGUAGGAUCCAG [theeternabot_exclusion_KL_Theo_A_36] | nM | 445 |
| UGUGGAGAAUAUGAUACCAGCAGUGAGAGAGAGGAAGUAUAGUGAUGUUAUAUGAGAGAAUGCCCUUGGCAGCAUAUGAAGAAGG [SSTheophylB.E] | nM | 138 |
| AAGCAGUCACUCGAAUCCAUCGAAGAUGGGCGAGGACCGGUACGGCCGCCACUCGGAGUGAUGUUCCGCAGACUGCAAAAUAAAA | nM | 580 |
| AAGAAUAAUCUUGCAGUGAUGUUGCAAGAUACCAGCAUCGAAAGAUGCCCUUGGCAGCUUGAAAACAUCACUAUCAAGCUGCAUA [Design2] | nM | 552 |
| GGUCGAGUGAUGUUCGAUGUAGUGCAUUCAGAGGAUAUAGGAUUGGCUAGAAGGCUGAAACCUUCUUCGAGUGAUGUUCGAGGAU [Same State FMN A GF5] | nM | 90.1 |

----------
- Tested on: K4 kissing-loop RNA reporter;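 also: bound reporter read as fluorescence of individual clusters on recovered sequencing chips by microscopy, with normalized cluster intensities fitted with a binding model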
- ASSAY_REMARKS: apparent KD of K4 kissing-loop reporter; higher = weaker reporter binding
- CONDITIONS_USED: Eterna round: R107; input ligand: arginine 13.2 mM

| SEQUENCE_CHAIN | UNITS_LABEL | apparent KD of K4 kissing-loop reporter |
| --- | --- | --- |
| CCGGGCGGCCGAAGGAGCGGGCGGACCCGAGUGAUGUUCGGGUGGACCGUGAGGUCCGGUGCCCAGGUAGGUCGCGGUUCCGUCC [#2 Same State - Arginine B Attempt #6 (HarryS)] | nM | 101 |
| AGGAUGUAGUGAUGUUAUAUAAGAAGUAAACGAGGACCGGUACGGCCGCCACUCGAAGCGGCUACUAGCGCGUUGCGAGGUGUGC [ExTryptoA.Ce] | nM | 384 |
| AAGGGCGGGACUUCCUCGCCGGAUAGAGAUACCAGCCCUGCAAAGGGCCCUUGGCAGCUCACUGACCUCAGUGAUGUUGAGGUUC [Maanveri] | nM | 210 |
| GGGAGGAUUAAAUAAAUAAAUAAGAUAGAUACCAGUUGAGAGUAAGGCCCUUGGCAGCUAAAACGAGUGAUGUUCGAGUAAAUCC [Default title] | nM | 88.8 |
| CGCAGUGAUGUUGCGAGUAGCUACAGGGAAGGAGCGUGCUAGAGCACAGGUAGGUCGCCCUCGGGCAGUGAUGUUGCCAAAGGUU [Exclusion ARginine A GF 16] | nM | 85.2 |
| GCCGUAGAUGGAAGGAGCGUGGUCUAGAAGCACAAGUGAUGUUUGUGGUAACCUUCUGACCCACAGGUAGGUCGCCAUCUACGGC | nM | 78.4 |
| ACGCUAGCUACCGAAAGGUAGCUAGCGAGUGAGGAUAUGUGGAAACACAGAAGGCACAGCGCAGUGAUGUUGUGCGGCGGAAGCG [whbob_SS_FMNA__2th168] | nM | 221 |
| UGAUCUCAGUGAUGUUGAGAUCAAACUGAUACCAGUCAAUUUAGUGACCCUUGGCAGCAGUAUACCAAGGGAUCUUAUGAGAUCA [Theo A SS t5] | nM | 152 |
| AACUCUCAGGCACGCGAGUGAUGUUCGCGGCGAGGACCGGUACGGCCGCCACUCGCGCCUGAGAGAGGUUAUCAAAGAUAGCCAA [whbob_SS_tryp_A] | nM | 51.3 |
| UGGCGGACGAUCCGGAGUGAUGUUCCGGAUACCAGCAGAAGAGCCUGCCCUUGGCAGCCGUGCGACGCUGGGAGAGUCCGGCGUC [Requered] | nM | 88 |
| AAGCAGUCACGCGAAGCCAUCGAAGAUGGACGAGGACCGGUACGGCCGCCACUCGGAGUGAUGUUCCGAAGACUGCAAAAUAAAA | nM | 499 |
| CCAGCAAAGCUGGUCGCCAAACAACGGGCACGAGGACCGGUACGGCCGCCACUCGUGAGGACGAGUGAUGUUCGUUCACGGGCGA | nM | 587 |

----------
apparent KD of MS2 coat protein for assorted sequences
- Tested on: MS2 coat protein
- ASSAY_REMARKS: apparent KD of MS2 coat protein; designed switch direction (-1 OFF switch, 1 ON switch): 1; higher = weaker reporter binding
- CONDITIONS_USED: Eterna round: R95; input ligand: none

| SEQUENCE_CHAIN | UNITS_LABEL | apparent KD of MS2 coat protein |
| --- | --- | --- |
| GUUAAACAUGAGGAUCACCCAUGUAAUAAUAUGGGAGGAUAUCAGAAAUUAUGUAUUAAAUGAGAAGGCCUAAUUG [Mat - Same State 1 - Mod of Eli - D80] (puzzle: Same State 1) | nM | 769 |
| UUUAAACAUGAGGAUCACCCAUGUUUUUUCAUGGGAGGAUAUCUAAGUUAAUUAUAUUAAGGAGAAGGCCUAUUUU [× ×•×ª×• ×ž×“×™× ×” × ×—×ª-05] (puzzle: Same State 1) | nM | 53.1 |
| UCUUGGUUUUUGCUCGUUUUUUGUGUUGAACAUGAGGAUCACCCAUGUAUUGUACGAUCCAAUUUGAUAAUGGUCCG [JMF 61] (puzzle: Sensor for hsa-mir-208a) | nM | 48.7 |
| AGAGUGUAUCCACAGGAUAUGCGAGCCGACACAUGAGGAUCACCCAUGUAGUCCUAAAGGGCUGAGCAGAAGGGUGGUAAGGCUC [Xelear] (puzzle: Same State 2) | nM | 285 |
| AGUCCAGCCUGAGCUGGACAAAAGCAUGUACAUGAGGAUCACCCAUGUCAUGUACAAGCUUUUUGUUCGUCUUAAAA [Zipper 46 - 12] (puzzle: Sensor for hsa-mir-208a) | nM | 500 |
| UAGUUACUAUCUCAGGAUAUCAUGUCAAAGACAUGAGGAUCACCCAUGUACCAGGAAACUGGUUAUGAGAAGGGAGAUAGUAACU [Mat - Same State 2 - Mod - D55] (puzzle: Same State 2) | nM | 1070 |
| AGUCCAGCCUGAGCUGGACAAAAGCAUGUACAUGAGGAUCACCCAUGUCAUGUACAAGCUUUUUGCUCGACUUAAAA [Mat - hsa-mir-208a - Mod of JL - D10] (puzzle: Sensor for hsa-mir-208a) | nM | 624 |
| UGUAAACAUGAGGAUCACCCAUGUUUUUUCAUGGGAGGAUAUCUGAGUUAAGUAUAUUAAGGAGAAGGCCUUGUGU [× ×•×ª×• ×ž×“×™× ×” × ×—×ª-03] (puzzle: Same State 1) | nM | 24.7 |
| GGAGCCGGUACUGAGGAUAUUCAUAUUAAAACAUGAGGAUCACCCAUGUGGGCCAGAAGGCCUUGGGAGAAGGCAGACCAGCUCG [Atgexeedri - 3] (puzzle: Same State 2) | nM | 177 |
| UAGUACAUGCUUUUUGCCCGUCUUAGAUAACAUGAGGAUCACCCAUGUAAGGUGAAAGUUAUAUAGUGGAGGAAGAU [JR_SHM208A_Sub055] (puzzle: Sensor for hsa-mir-208a) | nM | 107 |
| AGUGAACAUGAGGAUCACCCAUGUGAGAGAAGUGUAGGAUAUGUGAGAGGCGGAGGAGGGACAGAAGGACAUGGAG [JR_SS!_Sub075] (puzzle: Same State 1) | nM | 48.5 |
| GGUCCAGCCUGAGCUGGACGAAAGUAUGUACAUGAGGAUCACCCAUGUCAUGUAUAAGUUUUUUGUUUGUCUUGAAA [Sensorship 2 - Jieux - Sensor for hsa-mir-208a] (puzzle: Sensor for hsa-mir-208a) | nM | 22.7 |
| UAGAGAGGAAGCGAGGAUAUCGUGGGAGGAACAUGAGGAUCACCCAUGUGUGAUGUUGAGAGGGACGAGAAGGCGCGGGAAAGUA [JR_SS2_Sub079] (puzzle: Same State 2) | nM | 277 |
| AUAAAACAUGAGGAUCACCCAUGUCAACAAAGAUGAGGAUAUGUACAGACUUCGGUCUGUACAGAAGGCAUAUAAU [salish99_ss1_r3_099] (puzzle: Same State 1) | nM | 13.9 |
| AUAAAACAUGAGGAUCACCCAUGUCAACAUAGUCGAGGAUAUGGGCAAAUAAAAUAAGAACCAGAAGGCGAAUAAU [salish99_ss1_r3_040] (puzzle: Same State 1) | nM | 510 |
| CAAACUUAGUAGGGUAGGUACCCAGGACGACAUGAGGAUCACCCAUGUAAGAGCUUUUUGCUCGUCGUCAACAGUUG [JR_SHM208a_Sub019] (puzzle: Sensor for hsa-mir-208a) | nM | 19.8 |
| AGCUAUCGAAAACGAUAGCAAAAGCAUGUACAUGAGGAUCACCCAUGUCAUGUACAGGCUUUUUGCUCGUCUUAAAA [Zipper 23 - 8] (puzzle: Sensor for hsa-mir-208a) | nM | 124 |
| AUUAAACAUGAGGAUCACCCAUGUCAACAAAGUCGAGGAUAUGGGCAAAUAAAAUAAGAACCAGAAGGCGAUUAAU [salish99_ss1_r3_078] (puzzle: Same State 1) | nM | 95.7 |
| AGUGAACAUGAGGAUCACCCAUGUGAGAGAAGUGUAGGAUAUGUGAGGAGCAGAGGAGGAACAGAAGGACAUGGAG [JR_SS!_Sub073] (puzzle: Same State 1) | nM | 48.5 |
| GAAGGAUGAGCGUAGGAUAUAGGAGGAGUGACAUGAGGAUCACCCAUGUGGUAGGAGGGAGGGUACUAGAAGGACGAGGAAGAGG [JR_SS2_Sub069] (puzzle: Same State 2) | nM | 161 |
